- tested-target: Beta-secretase 1 (Homo sapiens)
- Sequence (P56817 whole entry): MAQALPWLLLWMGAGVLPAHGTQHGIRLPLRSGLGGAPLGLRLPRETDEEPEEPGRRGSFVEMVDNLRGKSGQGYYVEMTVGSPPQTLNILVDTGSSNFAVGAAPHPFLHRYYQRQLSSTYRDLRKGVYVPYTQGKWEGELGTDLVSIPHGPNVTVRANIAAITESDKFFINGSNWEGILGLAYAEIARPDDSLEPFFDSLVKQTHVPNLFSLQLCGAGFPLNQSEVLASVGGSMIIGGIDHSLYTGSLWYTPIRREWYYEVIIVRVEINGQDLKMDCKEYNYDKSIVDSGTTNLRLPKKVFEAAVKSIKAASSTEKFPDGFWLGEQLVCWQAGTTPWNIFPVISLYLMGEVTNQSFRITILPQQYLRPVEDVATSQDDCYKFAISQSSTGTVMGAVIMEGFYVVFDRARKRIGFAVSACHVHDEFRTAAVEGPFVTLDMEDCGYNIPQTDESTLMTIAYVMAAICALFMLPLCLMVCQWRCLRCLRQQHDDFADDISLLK
- assay-text: Inhibition of BACE-1
observation-type: IC50 (µM)
The figure you give is taken to be in µM; do not add the unit.

[in] Return reported IC50 for target or system Beta-secretase 1 (Homo sapiens), item COc1ccc2c(c1F)CCC2(Cc1ccc(C(F)(F)F)cc1)c1cn(C)c(N)n1 (configuration not stated) .
[out] 0.063

[in] Return reported IC50 for target or system Beta-secretase 1 (Homo sapiens), item COc1ccc2c(c1)CCC2(Cc1ccc(C(F)(F)F)cc1)c1cn(C)c(N)n1 (configuration not stated) .
[out] 0.35

* * *

- Tested on: Caco-2
- assay-text: Apparent permeability in human Caco-2 cells assessed as Pgp efflux ratio from basolateral to apical side to apical to basolateral side
- Format: ADME, cell-based
observation-type: Ratio
// response body must contain only the number

[in] Read the entry COc1ccc(C(Cc2ccc(C(F)(F)F)cc2)c2cn(C)c(N)n2)cc1 (stereo unspecified) and write its reported Ratio.
[out] 4
